Target: T1, anti-CD28 Fab (SEQ ID NOs: 202, 203)
T1 construct: biotinylated and captured on neutravidin coated plates in the phage ELISA
T1 sequence (VH, as listed by the source, chain 1 of 2): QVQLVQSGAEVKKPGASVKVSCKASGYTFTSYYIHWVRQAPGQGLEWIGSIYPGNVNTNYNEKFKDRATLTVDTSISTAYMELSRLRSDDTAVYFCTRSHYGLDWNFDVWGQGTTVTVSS
T1 sequence (VL, as listed by the source, chain 2 of 2): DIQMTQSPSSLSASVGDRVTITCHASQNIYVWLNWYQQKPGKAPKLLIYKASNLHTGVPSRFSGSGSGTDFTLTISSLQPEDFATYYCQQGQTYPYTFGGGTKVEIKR
Assay: phage binding ELISA; Fab wells pre-incubated with CD28 antigen (competitor);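 also: clonal phage supernatants added to wells preincubated with CD28 antigen in blocking buffer versus blocking buffer alone, washed, bound phage read by HRP-conjugated anti-M13 antibody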
metric: Anti-CD28 Fab signal in the presence of CD28

>  <binder>
YCEGHTSEYMNKCL [Phage-335]

>  <observed value>
0.06

$$$$
>  <binder>
YCDGHSPEYMPKCL [Phage-319]

>  <observed value>
0.08

$$$$
>  <binder>
YCAGHAPEYMFKCM [Phage-347]

>  <observed value>
0.06

$$$$
